# procedure_summary: Anticancer human tumor 997537-175-T-J1-PDC patient-derived colon adenocarcinoma cell line growth inhibition [POLQ];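 also: luminescence signal used as a surrogate for viable cells; spheroids exposed to drugs for seven days before readout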
# condition_notes: 997537-175-T-J1-PDC complex spheroid viability, combination with POLQ inhibitors; second compound 0.316 µM; first compound 0.316 µM; active compounds read low
A collection of molecules and their measured viability, T/C
measured_property: viability, T/C

{"molecule": "O=c1[nH]cc(F)c(=O)[nH]1 + Cc1cccc(N(C)C(=O)C2C(O)CCN2c2nc(C)cc(C(F)(F)F)c2C#N)c1", "measurement": "112%"}
{"molecule": "CC1COCCN1c1cc(C2(O)CC3CCC(C2)O3)c2cnn(-c3ccn[nH]3)c2n1 (stereo unspecified) + Cc1cccc(N(C)C(=O)C2C(O)CCN2c2nc(C)cc(C(F)(F)F)c2C#N)c1", "measurement": "54.8%"}
{"molecule": "O=C(c1cc(Cc2n[nH]c(=O)c3ccccc23)ccc1F)N1CCN(C(=O)C2CC2)CC1 + Cc1cccc(N(C)C(=O)C2C(O)CCN2c2nc(C)cc(C(F)(F)F)c2C#N)c1", "measurement": "109%"}
{"molecule": "C=CC(=O)N1CCN(c2nc(=O)n(-c3c(C)ccnc3C(C)C)c3nc(-c4c(O)cccc4F)c(F)cc23)C(C)C1 (stereo unspecified) + Cc1cccc(N(C)C(=O)C2C(O)CCN2c2nc(C)cc(C(F)(F)F)c2C#N)c1", "measurement": "108%"}
{"molecule": "CC1COCCN1c1cc(C2(O)CC3CCC(C2)O3)c2cnn(-c3ccn[nH]3)c2n1 (stereo unspecified) + COC1C(OC(N)=O)C(O)C(Oc2ccc3c(O)c(NC(=O)c4ccc(O)c(CC=C(C)C)c4)c(=O)oc3c2C)OC1(C)C", "measurement": "41.2%"}
{"molecule": "COc1cc(C2c3cc4c(cc3C(OC3OC5COC(C)OC5C(O)C3O)C3COC(=O)C23)OCO4)cc(OC)c1O (stereo unspecified) + Nc1ccc(C#CCN(C(=O)Cc2ncc(C(F)(F)F)cc2C(F)(F)F)c2ccc(F)cc2)nn1", "measurement": "86.5%"}
{"molecule": "CNCc1ccc(-c2[nH]c3cc(F)cc4c3c2CCNC4=O)cc1 + Cc1cccc(N(C)C(=O)C2C(O)CCN2c2nc(C)cc(C(F)(F)F)c2C#N)c1", "measurement": "99.5%"}
{"molecule": "Nc1ccn(C2OC(CO)C(O)C2(F)F)c(=O)n1 (stereo unspecified) + COC1C(OC(N)=O)C(O)C(Oc2ccc3c(O)c(NC(=O)c4ccc(O)c(CC=C(C)C)c4)c(=O)oc3c2C)OC1(C)C", "measurement": "88.7%"}
{"molecule": "O=C(c1cc(Cc2n[nH]c(=O)c3ccccc23)ccc1F)N1CCN(C(=O)C2CC2)CC1 + Nc1ccc(C#CCN(C(=O)Cc2ncc(C(F)(F)F)cc2C(F)(F)F)c2ccc(F)cc2)nn1", "measurement": "104%"}
{"molecule": "C=CC(=O)N1CCN(c2nc(=O)n(-c3c(C)ccnc3C(C)C)c3nc(-c4c(O)cccc4F)c(F)cc23)C(C)C1 (stereo unspecified) + COC1C(OC(N)=O)C(O)C(Oc2ccc3c(O)c(NC(=O)c4ccc(O)c(CC=C(C)C)c4)c(=O)oc3c2C)OC1(C)C", "measurement": "106%"}
{"molecule": "COc1cc2cc(C(=O)CCC(=O)O)sc2cc1OC + Cc1cccc(N(C)C(=O)C2C(O)CCN2c2nc(C)cc(C(F)(F)F)c2C#N)c1", "measurement": "87.5%"}
